test system: UO-31; assay: NCI tumour cell line growth inhibition, 48 h
Calls of active or inactive are those of the source. No stated cut-off is given here; in the data, active = GI50 up to about 1.1 µM and inactive = higher. Peptide text beside a SMILES is read from it. * marks the point of attachment. OSu = O=C1CCC(=O)N1O*
Classes used: yes for active, no for inactive

[
  {
    "compound": "O=[N+]([O-])c1ccc2c(c1)c1nn2CCCCOc2nn(c3ccc([N+](=O)[O-])cc23)CCCCO1",
    "category-label": "no"
  },
  {
    "compound": "CCOC(=O)CCN1C(=O)c2c(NC(=O)C(=O)O)cccc2S1(=O)=O",
    "category-label": "no"
  },
  {
    "compound": "CC(=O)N1c2ccccc2C2=NN(C)C(=N)SC21 (stereo not drawn)",
    "category-label": "no"
  },
  {
    "compound": "COc1ccc(NC(C)=O)cc1N1C(=O)/C(=C\\c2cc(OC)c(OC)c(OC)c2)SC1c1ccccc1 (stereo not drawn)",
    "category-label": "no"
  },
  {
    "compound": "Cc1cnoc1/N=C1\\C=C(Nc2oncc2C)C(=O)c2ccccc21",
    "category-label": "no"
  },
  {
    "compound": "CC(C)c1ccc(/C=C2\\CSCC3=C2N=C2SCC(=O)N2C3c2ccc(C(C)C)cc2)cc1 (stereo not drawn)",
    "category-label": "no"
  },
  {
    "compound": "CC1C2CC=CC(=O)[C@@]2(C)CCC12OCCO2 (stereo partly drawn)",
    "category-label": "no"
  },
  {
    "compound": "CC(=O)OC1CCC2(C)C(CCC3C2CC(=O)C2(C)C3CC(N3CC3)C2C(C)=O)C1 (stereo not drawn)",
    "category-label": "no"
  },
  {
    "compound": "c1ccc(CN2CCN3CCN(CC2)CCN(Cc2ccccc2)CC3)cc1",
    "category-label": "no"
  },
  {
    "compound": "CC1(C)CC(N(C(=O)/C=C/c2ccc([N+](=O)[O-])o2)C2CCCCC2)CC(C)(C)N1",
    "category-label": "no"
  },
  {
    "compound": "CCC1C(C#N)=C(O)NC(O)=C1C#N",
    "category-label": "no"
  },
  {
    "compound": "CCC/C=C\\C=C\\C1(NS(=O)(=O)c2ccc(C)cc2)CCC(C(C)(C)C)CC1 (stereo not drawn)",
    "category-label": "no"
  },
  {
    "compound": "NCCCCC(NC(=O)C(N)Cc1ccc(O)cc1)C(=O)NC(Cc1ccc(O)cc1)C(=O)NC(CCCCN)C(=O)ON1C(=O)CCC1=O (stereo not drawn) (H-YKYK-OSu; configuration not given here)",
    "category-label": "no"
  },
  {
    "compound": "NCCOc1ccc(/C(=C(/Cl)c2ccccc2)c2ccccc2)cc1",
    "category-label": "no"
  },
  {
    "compound": "Cc1cccc(NC(=O)CC#N)c1Cl",
    "category-label": "no"
  },
  {
    "compound": "O=C(O)C1CCCCC1C(=O)Nc1nc2ccccc2[nH]1 (stereo not drawn)",
    "category-label": "no"
  },
  {
    "compound": "COc1cc2cc(C(=O)N3CC(COS(C)(=O)=O)c4c3cc([N+](=O)[O-])c3ccccc43)[nH]c2c(OC)c1OC (stereo not drawn)",
    "category-label": "no"
  },
  {
    "compound": "Cc1ccc(Nc2c3c(c(C#N)c4nc5ccccc5n24)CCCC3)cc1",
    "category-label": "no"
  },
  {
    "compound": "NS(=O)(=O)c1ccc(N2C(=O)C(=O)N(c3ccccc3)C2=S)cc1",
    "category-label": "no"
  },
  {
    "compound": "CC(=O)CC(=O)CCCC(=O)Nc1ccc(Cl)cc1Cl",
    "category-label": "no"
  },
  {
    "compound": "CC(CN(C)C)/C(=N\\Nc1ccccc1)c1ccccc1 (stereo not drawn)",
    "category-label": "no"
  },
  {
    "compound": "Cc1ccc(S(=O)(=O)n2cc(C=O)c(-c3cn(S(=O)(=O)c4ccc(C)cc4)cc3-c3cn(S(=O)(=O)c4ccc(C)cc4)cc3C=O)c2)cc1",
    "category-label": "no"
  },
  {
    "compound": "CC1C(=O)C(C)C(c2ccco2)N(N=O)C1c1ccco1 (stereo not drawn)",
    "category-label": "no"
  },
  {
    "compound": "COC1(OC)CCCCCCCCC(OC)(OC)CCCCCCCC1",
    "category-label": "yes"
  },
  {
    "compound": "CN(C)c1ccc(/C=C(\\NC(=O)c2ccccc2)c2nn(C)c(=O)o2)cc1",
    "category-label": "no"
  },
  {
    "compound": "COc1cccc(/C=C2\\S/C(=N/Nc3nc(-c4ccc([N+](=O)[O-])cc4)cs3)NC2=O)c1O",
    "category-label": "no"
  },
  {
    "compound": "C[n+]1c(-c2ccc(/C=N\\Nc3ccnc(N/N=C/c4ccc(-c5cn6ccsc6[n+]5C)cc4)n3)cc2)cn2ccsc21",
    "category-label": "no"
  },
  {
    "compound": "COC1CC(N)C(O)C(C)O1 (stereo not drawn)",
    "category-label": "no"
  },
  {
    "compound": "O=C1c2cccc3c(Cl)ccc(c23)C(=O)N1CCCN1CCN(CCCN2C(=O)c3cccc4c(Cl)ccc(c34)C2=O)CC1",
    "category-label": "no"
  },
  {
    "compound": "CC(C)(C)c1cc(-c2c3nc(c(-c4cc(C(C)(C)C)cc(C(C)(C)C)c4)c4ccc([nH]4)c(-c4cc(C(C)(C)C)cc(C(C)(C)C)c4)c4nc(c(-c5cc(C(C)(C)C)cc(C(C)(C)C)c5)c5ccc2[nH]5)C=C4)C=C3)cc(C(C)(C)C)c1",
    "category-label": "no"
  },
  {
    "compound": "COC(=O)[C@H]1CO[C@@H](C(C)(C)C)N1C(=O)N1C=CC(=O)C[C@@H]1C",
    "category-label": "no"
  },
  {
    "compound": "O=S(=O)(CCn1c(Sc2ccccc2)c(Sc2ccccc2)c2ccccc21)c1ccccc1",
    "category-label": "no"
  },
  {
    "compound": "CCNc1nnc(-c2ccccc2Nc2ccccc2-c2nnc(NCC)s2)s1",
    "category-label": "no"
  },
  {
    "compound": "NCCCCCCNCc1cccc2ccccc12",
    "category-label": "no"
  },
  {
    "compound": "N=C(NC(=S)N1CCCCC1)N1CCCCC1",
    "category-label": "no"
  },
  {
    "compound": "Cn1cccc(C(=O)c2ccccc2)c1=O",
    "category-label": "no"
  },
  {
    "compound": "CC1=C(C(=O)Nc2ccccc2C)C(c2ccc(C3C(C(=O)Nc4ccccc4C)=CNC=C3C(=O)Nc3ccccc3C)cc2)C(C(=O)Nc2ccccc2C)=C(C)N1",
    "category-label": "no"
  },
  {
    "compound": "CC(=O)O[C@]1(C)OC(=O)[C@@H](C)N1[N+](=O)[O-]",
    "category-label": "no"
  }
]

###

# GI50 per record follows
tested on: Malme-3M; experiment: NCI tumour cell line growth inhibition, 48 h
Calls of active or inactive are those of the source. Cut-off read from the data, not from the text of the source: active = GI50 up to about 1.1 µM and inactive = higher.

[
  {
    "compound": "CCC1C(C#N)=C(O)NC(O)=C1C#N",
    "GI50": "> 100 µM (inactive)"
  },
  {
    "compound": "O=C1OC(c2ccc([N+](=O)[O-])cc2)=N/C1=C\\c1ccc(O)cc1",
    "GI50": "> 100 µM (inactive)"
  },
  {
    "compound": "O=C(CCn1[nH]c(=O)c(Cl)c(Cl)c1=O)NOCCCc1ccccc1",
    "GI50": "> 100 µM (inactive)"
  },
  {
    "compound": "C=C1C(=O)O[C@@H]2[C@H]1CCC(C)=C1C=CC(=O)[C@]12C",
    "GI50": "> 10 µM (inactive)"
  },
  {
    "compound": "CC(=O)C1CC=C(C)CC1 (stereo unspecified)",
    "GI50": "> 100 µM (inactive)"
  },
  {
    "compound": "CC1(C)CN(c2ccccc2)C(=O)C1OC(=O)[C@@]1(C)C[C@@H]2C=C[C@H]1C2 (stereo partly specified)",
    "GI50": "10.9 µM (inactive)"
  },
  {
    "compound": "O=C(NC(Cc1c[nH]c2ccccc12)C(=O)O)/C(=C/c1ccccc1O)NC(=O)c1ccccc1 (stereo unspecified)",
    "GI50": "22.4 µM (inactive)"
  },
  {
    "compound": "O=C1C=C(NCC(c2ccccc2)c2ccccc2)C(=O)c2ncccc21",
    "GI50": "1.36 µM (inactive)"
  },
  {
    "compound": "Nc1nc2ncn(CCO)c2c(=S)[nH]1",
    "GI50": "> 100 µM (inactive)"
  },
  {
    "compound": "OC(c1cc2ccccc2[nH]1)C(O)(c1cc2ccccc2[nH]1)c1cc2ccccc2[nH]1 (stereo unspecified)",
    "GI50": "28.4 µM (inactive)"
  },
  {
    "compound": "Cc1nc(O)nc(O)c1/C=C/C(=O)O",
    "GI50": "> 1000 µM (inactive)"
  }
]
